meta.source: PubChem BioAssay (NCI)

Tested on: OVCAR-8 ovarian
Assay: NCI-60 one-dose screen, 48 h (100 = growth as untreated, 0 = no growth, -100 = all killed)
Conditions: 10 µM unless noted
The panel holds about 83,000 compounds, 20% with a hit somewhere; the sample as a whole holds those more often.
endpoint_label: growth (%)
Just the number in %, nothing appended.

Sample answers from the record:
INSERT INTO measurements (mol_smiles, study_system, endpoint_label, output_unit, experimental_value) VALUES
  ('COC(=O)c1cc(Br)ccc1O', 'OVCAR-8 ovarian', 'growth', '%', 103),
  ('O=c1c2ccccc2c(=O)c2c1sc1c(=O)c3ccc(O)cc3c(=O)c12', 'OVCAR-8 ovarian', 'growth', '%', -11.5),
  ('CN(CCC(=O)c1ccccc1)CCC(=O)c1ccccc1', 'OVCAR-8 ovarian', 'growth', '%', 93.2),
  ('N#Cc1cncc(-c2ccc3ncnc(Nc4cccc(Cl)c4)c3c2)c1', 'OVCAR-8 ovarian', 'growth', '%', 49.1),
  ('O=C(Cc1ccc(/C=C/C(=O)c2ncc[nH]2)cc1)Nc1cc(C(F)(F)F)cc(C(F)(F)F)c1', 'OVCAR-8 ovarian', 'growth', '%', 87.1);

CC(C)(C)c1cc(Cl)c(O)c(CNCCO)c1 yielded growth of 110

CCOC(=O)/C=C1\S/C(=N\Nc2cc(=O)[nH]c3ccccc23)N(c2ccccc2)C1=O yielded growth of 100

CS(=O)(=O)c1ccc(NC(=O)c2ccccc2)nc1 yielded growth of 107

CS(=O)(=O)Nc1cc(-c2ccc3ncc(C#N)c(Nc4ccc(F)c(Cl)c4)c3c2)cnc1Cl yielded growth of 4.09

CNC(=O)c1cc(Oc2ccc3c(c2)sc2nc(-c4ccc(OC)cc4)cn23)ccn1 yielded growth of 52.4

O=C(Cc1ccc(NC(=O)c2cccc(Cl)c2)cc1)NCc1ccccc1 yielded growth of 67.1

====

Overview of reported growth across a group of compounds:
Test system: KM12 colon
Assay: NCI-60 one-dose screen, 48 h (100 = growth as untreated, 0 = no growth, -100 = all killed)
Settings: 10 µM unless noted
This is part of a sample that, as a whole, favours compounds with a hit. Of some 83,000 tested, about 20% had one in any assay.
Just the number in %, nothing appended.

Sample answers from the record:
INSERT INTO results (compound, endpoint_label, experimental_value) VALUES
  ('COc1cccc(CCNc2ncnc3c2ncn3Cc2nnc3c4ccccc4c(Cl)nn23)c1', 'growth', 80),
  ('Oc1ccc(/C=C/c2ccc(O)cc2)cc1', 'growth', 45.5),
  ('O=C1c2ccccc2C(=O)c2c1c(C(=O)NCc1ccccc1)c1ccccn21', 'growth', 101),
  ('Cc1ccc(C(=O)c2ccc(CC(=O)N=Nc3c(O)[nH]c4ccc(Br)cc34)n2C)cc1', 'growth', 97.9),
  ('CCN1C(=O)N(CC)C2C1NC(=S)N2/N=C/c1ccc(C(F)(F)F)cc1 (stereo unspecified)', 'growth', 56);

Cc1c(CN)cc(-c2ccc(Cl)cc2)n1-c1ccccc1 yielded growth of 99.9

N=c1c(S(=O)(=O)c2ccccc2)cc2c(=O)n3ccccc3nc2n1CC1CCCO1 (stereo unspecified) yielded growth of 108

Cc1cccc[n+]1C1c2ccccc2-c2ccccc21 yielded growth of 101

Cc1ccc(-c2csc(NC(=O)c3ccccc3CN3C(=O)c4ccccc4C3=O)n2)cc1 yielded growth of 100

COc1ccc(-c2nc3c(N)c(CO)cnc3s2)cc1 yielded growth of 88.4

NC1=Nc2cc(OCCCCN3Cc4ccccc4C3)c(OCC3CC3)cc2C12CCCC2 yielded growth of 46.5
